Test system: DU-145 prostate
Assay: NCI tumour cell line growth inhibition, 48 h; in the data active means GI50 below about 0.43 µM; inactive means the rest
Outcomes: active, inactive

O=Cc1ccc(-c2ccc(-c3ccc(C=O)o3)[se]2)o1 = inactive
COc1ccc(/C=C/C(=O)c2ccc(Nc3nc(Nc4ccc(F)cc4)nc(Nc4ccc(Cl)cc4)n3)cc2)cc1 = inactive
O=C(/C=C/c1nnc2n(Cc3ccccc3)c(=O)c3c4c(sc3n12)CCCC4)c1ccccc1 = inactive
CCC(C)CC(C)C(=O)c1c(O)ccn(O)c1=O (stereo not given) = inactive
C/C(=N\O)c1cccc(Nc2cc(-c3ccccc3)nc3c(O)cccc23)c1 = inactive
O=C(O)c1ccc(C(=O)O)c(C(=O)O)c1.[NH-]C1CCCCC1[NH-].[Pt+2] = inactive
COc1cc(/C=C/C(=O)c2ccc(F)cc2)ccc1OCCCCCOc1cc2c(cc1OC)C(=O)N1CCCC1C=N2 (stereo not given) = active
CCOc1cc(/C=C/C(=O)C(C(=O)/C=C/c2ccc(OC(=O)CNc3nnc(C)s3)c(OCC)c2)C(=O)CNc2nnc(C)s2)ccc1OC(=O)CNc1nnc(C)s1 = inactive
N#C/C(=C\c1ccc(F)cc1)n1nc2cccc(F)c2n1 = inactive
C=C(CN1CCN(c2ccccc2C(F)(F)F)CC1)c1ccc(C(=O)Nc2ccccc2N)cc1 = inactive
COc1cc2c(cc1OCCCCn1c(-c3cccs3)nc3ccccc31)N=C[C@@H]1CCCN1C2=O = inactive
CCCCN(CC)CCCCCCCCCCN1CCCc2cc(OC)ccc21 = inactive
Cc1ccc(NC(=O)c2nc(S(C)(=O)=O)oc2-c2ccc(F)cc2)cc1Nc1ccc2ncn(C)c(=O)c2c1 = inactive
Oc1ccc(Cc2ccc(O)c(C3CC(c4ccc(Cl)cc4)=NN3)c2)cc1C1CC(c2ccc(Cl)cc2)=NN1 (stereo not given) = inactive
COc1cc2c3c(n(CCCN4CCCNCC4)c(=O)c2cc1OC)-c1cc2c(cc1C3=O)OCO2 = active
